- assay-summary: solubility in isotonic phosphate buffer pH 7.4
- Format: physicochemical
- details: isotonic phosphate buffer, aqueous buffer; pH = 7.4; read-out: solubility
measure-name: solubility (µg/mL)

Would you please look over these solved cases?
Data request: Data request, read-out solubility, for Nc1nc(N)c2nc(-c3ccccc3)c(N)nc2n1 [Triamterene, 2,4,7-triamino-6-phenylpteridine, reference compound]
Data returned: 21

Data request: Data request, read-out solubility, for CC(C)N(Cc1ccccc1)Cc1ccc(-c2nc3c(N)nc(N)nc3nc2N)cc1 [compound IC]
Data returned: 1.9

Data request: Data request, read-out solubility, for CC1CCCC(C)N1CCCc1ccc(-c2nc3c(N)nc(N)nc3nc2N)cc1 (centres unmarked) [compound IL]
Data returned: 1500

Data request: Data request, read-out solubility, for CC1CCN(Cc2ccc(-c3nc4c(N)nc(N)nc4nc3N)cc2)CC1 [compound IE]
Data returned: 139

(1) Nc1nc(N)c2nc(-c3ccc(CN4CCCCC4)cc3)c(N)nc2n1 [compound ID]
(2) CC1CCCC(C)N1Cc1ccc(-c2nc3c(N)nc(N)nc3nc2N)cc1 (centres unmarked) [compound IF]
Data request: When their solubility values are compared, which is larger, 1 or 2 ? Reply with the label of the item you choose.
Data returned: 1

(A) CC1CC(C)CN(Cc2ccc(-c3nc4c(N)nc(N)nc4nc3N)cc2)C1 (centres unmarked) [compound IG]
(B) CN(C)Cc1ccc(-c2nc3c(N)nc(N)nc3nc2N)cc1 [compound IA]
Data request: I'm curious, which of these has a smaller solubility number: A or B ? Reply with the label of the item you choose.
Data returned: A
(A: 13 µg/mL, B: 580 µg/mL)

* * *

- Tested on: urine volume, Na^+, K^+
- assay-summary: diuresis test in rats (urine volume, Na+, K+ excretion; dose/response, ED50)
- Type: in vivo, Male Wister rats
- details: Rattus norvegicus, iv; duration 2.5 h; rats; read-out: ED50 (potency), urine K^+
measure-name: ED50 (µmol/kg)
Please state the figure in µmol/kg; there is no need to write the unit.

Data request: Data request, read-out ED50, for `CN(C)CCCc1ccc(-c2nc3c(N)nc(N)nc3nc2N)cc1`
Data returned: 1.41

Data request: Data request, read-out ED50, for Nc1nc(N)c2nc(-c3ccccc3)c(N)nc2n1 [Triamterene, 2,4,7-triamino-6-phenylpteridine, reference compound]
Data returned: 11.2

Data request: Data request, read-out ED50, for `CC1CCN(Cc2ccc(-c3nc4c(N)nc(N)nc4nc3N)cc2)CC1`
Data returned: 5.4

# next molecule below
Data request: Data request, read-out ED50, for `CN(C)CCc1ccc(-c2nc3c(N)nc(N)nc3nc2N)cc1`
Data returned: 1.04

* * *

- assay-summary: solubility in isotonic phosphate buffer pH 7.4
- Type: physicochemical
- details: aqueous buffer; isotonic phosphate buffer pH 7.4; read-out: solubility in isotonic phosphate buffer
measure-name: solubility (µg/mL)

Would you please look over these solved cases?
Data request: Data request, read-out solubility, for `Nc1nc(N)c2nc(-c3ccc(CN4CCC(Cc5ccccc5)CC4)cc3)c(N)nc2n1`
Data returned: 1.1

Data request: Data request, read-out solubility, for `CN(C)CCc1ccc(-c2nc3c(N)nc(N)nc3nc2N)cc1`
Data returned: 2200

(a) CC1CC(C)CN(CCCc2ccc(-c3nc4c(N)nc(N)nc4nc3N)cc2)C1 (stereo not shown)
(b) CN(C)CCCc1ccc(-c2nc3c(N)nc(N)nc3nc2N)cc1
Data request: I'm curious, which of these has a smaller solubility number: a or b ? Reply with the label of the item you choose.
Data returned: a
